study_target: Nuclear receptor subfamily 1 group I member 2 (Homo sapiens) (UniProt O75469)
protocol_text: Human pregnane X receptor (PXR) activation by small molecules, qHTS assay (AID 1346985); also: nearly all actives have a fitted effect of over 40% in size
assay_conditions: DPX-2 HepG2 CYP3A4-luciferase, 24 h; series mostly up to 38.3 µM
Records with an inconclusive call do not appear. The source made the active and inactive calls. Calls follow the shape of the dose curve; as a rule, active = well fitted activation curve with a large enough effect in the repeat runs; inconclusive = weak or mixed curves; inactive = flat fitted curve, though single readings scatter.
Outcome codes: class 1 (active), class 0 (inactive)

{"compound": "C[N+]12CCC(CC1)C(OC(=O)C(O)(c1ccccc1)c1ccccc1)C2 (stereo not drawn)", "classification": "class 0"}
{"compound": "O=[N+]([O-])c1ccc(/C=N\\O)o1", "classification": "class 0"}
{"compound": "CCOC(=O)c1cnc2c(cnn2CC)c1NN=C(C)C", "classification": "class 1"}
